# Tested on: Proteus vulgaris HX 19
# METHOD_NOTES: Minimum Inhibitory Concentration, Proteus vulgaris HX 19
# Format: cell-based
# CONDITION_SUMMARY: HX19; Proteus vulgaris HX 19; read-out: Minimum Inhibitory Concentration
MEASUREMENT_TYPE: MIC (µg/mL)

Known MIC results, listed for orientation:
Task: Need MIC of Cc1nnc(SCC2=C(C(=O)O)N3C(=O)C(NC(=O)C(NC(=O)c4ccnnc4O)c4ccc(CO)cc4)C3SC2)s1 (stereo not shown) , thanks.
Output: 0.2

Task: Need MIC of CSc1ccc2ncc(C(=O)N[C@@H](C(=O)N[C@@H]3C(=O)N4C(C(=O)O)=C(CSc5nnc(C)s5)CS[C@H]34)c3cccc(NC(N)=O)c3)c(O)c2n1 , thanks.
Output: 0.1

Task: Need MIC of Cc1nnc(SCC2=C(C(=O)O)N3C(=O)C(NC(=O)C(NC(=O)c4cnccc4O)c4ccc(N)cc4)C3SC2)s1 (stereo not shown) , thanks.
Output: 0.1

P: O=C(O)C1=C(CSc2ccc(O)nn2)CSC2C(NC(=O)C(NC(=O)c3cnc4cccnc4c3O)c3ccc(O)cc3)C(=O)N12 (stereo not shown)
Q: CC(=O)OCC1=C(C(=O)O)N2C(=O)C(NC(=O)C(NC(=O)c3cccnc3O)c3ccc(O)cc3)C2SC1 (stereo not shown)
Task: // select label with min value of measured MIC from [ P , Q ] // output: label of the selected item
Output: P

---

# Test system: Proteus vulgaris HX 19
# METHOD_NOTES: Minimum Inhibitory Concentration, Proteus vulgaris HX 19
# Assay type: cell-based
# CONDITION_SUMMARY: HX19; Proteus vulgaris HX 19; read-out: Minimum Inhibitory Concentration
MEASUREMENT_TYPE: MIC (µg/mL)

Task: Need MIC of Cc1nnc(SCC2=C(C(=O)O)N3C(=O)C(NC(=O)[C@H](NC(=O)c4cnc5cccnc5c4O)c4ccc(N)cc4)C3SC2)s1 (stereo partly shown) , thanks.
Output: 0.1

a: Cn1nnc(SCC2=C(C(=O)O)N3C(=O)C(NC(=O)C(NC(=O)c4cnc5cccnc5c4O)c4ccc(N)cc4)C3SC2)n1 (stereo not shown)
b: CC(=O)OCC1=C(C(=O)O)N2C(=O)C(NC(=O)[C@H](NC(=O)c3cnc4cccnc4c3O)c3ccc(N)cc3)C2SC1 (stereo partly shown)
Task: Lab note: record which item had the higher MIC, a or b . // output: label of the selected item
Output: b

I: CC(=O)OCC1=C(C(=O)O)N2C(=O)C(NC(=O)C(NC(=O)c3cnc4nc(C)ccc4c3O)c3ccc(CO)cc3)C2SC1 (stereo not shown)
II: Cn1nnnc1SCC1=C(C(=O)O)N2C(=O)C(NC(=O)[C@H](NC(=O)c3cnc4nc(N5CCCC5)cnc4c3O)c3ccc(O)cc3)C2SC1 (stereo partly shown)
Task: Lab note: record which item had the higher MIC, I or II . // output: label of the selected item
Output: II

a: CC(=O)OCC1=C(C(=O)O)N2C(=O)C(NC(=O)[C@H](NC(=O)c3nnc4ccccc4c3O)c3ccc(O)cc3)C2SC1 (stereo partly shown)
b: NC(=O)Nc1ccc([C@@H](NC(=O)c2cnc3cccnc3c2O)C(=O)N[C@@H]2C(=O)N3C(C(=O)O)=C(CSc4cnn[nH]4)CS[C@H]23)cc1
c: Cn1nnnc1SCC1=C(C(=O)O)N2C(=O)C(NC(=O)C(NC(=O)c3ccnnc3O)c3cccc(N)c3)C2SC1 (stereo not shown)
d: Cn1nnnc1SCC1=C(C(=O)O)N2C(=O)C(NC(=O)C(NC(=O)c3cnc4scnc4c3O)c3cccc(NC(N)=O)c3)C2SC1 (stereo not shown)
Task: Please list these compounds in decreasing order of MIC. Give your ranking as a list of the labels in the requested order.
Output: a, d, b, c
(a: 0.78 µg/mL, d: 0.39 µg/mL, b: 0.2 µg/mL, c: 0.1 µg/mL)

1: Cc1nnc(SCC2=C(C(=O)O)N3C(=O)C(NC(=O)[C@H](NC(=O)c4ccnnc4O)c4ccc(O)cc4)C3SC2)s1 (stereo partly shown)
2: COc1ccc2ncc(C(=O)NC(C(=O)NC3C(=O)N4C(C(=O)O)=C(CSc5nnnn5C)CSC34)c3cccc(N)c3)c(O)c2n1 (stereo not shown)
3: O=C(O)C1=C(CSc2nnc(CO)s2)CSC2C(NC(=O)C(NC(=O)c3cnccc3O)c3ccc(CO)cc3)C(=O)N12 (stereo not shown)
4: CSc1ncc2c(O)c(C(=O)NC(C(=O)NC3C(=O)N4C(C(=O)O)=C(CSc5nnnn5C)CSC34)c3ccc(CO)cc3)cnc2n1 (stereo not shown)
Task: Please list these compounds in decreasing order of MIC. Give your ranking as a list of the labels in the requested order.
Output: 4, 3, 1, 2
(4: 0.78 µg/mL, 3: 0.39 µg/mL, 1: 0.2 µg/mL, 2: 0.1 µg/mL)
